experimental-details: in vitro
condition-notes: human, Caco-2, pH 7.4, Recovery, B2A + LY335979, individual experiments
property-name: recovery (%)
Dear colleague, please return just the value in %, with no unit written.

In: // query recovery value for entry Cc1ccc(NC(=O)c2ccc3c(c2)OCCO3)cc1NC(=O)c1ccc2nc(OCCN3CCCC3)ccc2c1
Out: 100

----------
experimental-details: in vitro
Type: in vitro ADME
condition-notes: both sexes, human, microsomes, pH 7.4; n = 1, fraction unbound assumed 1; read-out: Microsome Clint, human (HLM)
property-name: microsomal CLint (µL/min/mg)
Dear colleague, please return just the value in µL/min/mg, with no unit written.

In: // query microsomal CLint value for entry Cc1ccc(NC(=O)c2ccc3c(c2)OCCO3)cc1NC(=O)c1ccc2nc(CN3CCN(C)CC3)ccc2c1
Out: 33

----------
experimental-details: Plasma protein binding and blood-to-plasma ratio
condition-notes: BALB/c mouse blood; fub = fup/B:P
property-name: fub
The answer should be a number; do not append a unit.

In: // query fub value for entry Cc1ccc(NC(=O)c2ccc3c(c2)OCCO3)cc1NC(=O)c1ccc2nc(OCCN3CCCCC3)ccc2c1
Out: 0.015

In: // query fub value for entry Cc1ccc(NC(=O)c2ccc3c(c2)OCCO3)cc1NC(=O)c1ccc2nc(CN3CCN(C(C)C)CC3)ccc2c1
Out: 0.032

In: // query fub value for entry CCN1CCN(Cc2ccc3cc(C(=O)Nc4cc(NC(=O)c5ccc6c(c5)OCCO6)ccc4Cl)ccc3n2)CC1
Out: 0.0053

In: // query fub value for entry CC(C)N1CCN(Cc2ccc3cc(C(=O)Nc4cc(NC(=O)c5ccc6c(c5)OCCO6)ccc4Cl)ccc3n2)CC1
Out: 0.011

In: // query fub value for entry Cc1ccc(NC(=O)c2ccc3c(c2)OCCO3)cc1NC(=O)c1ccc2nc(OCCN3CCCC3)ccc2c1
Out: 0.0083

----------
experimental-details: Mouse blood PK (BALB/c)
condition-notes: female, BALB/c, mouse, whole blood, po, 5 mg/kg
property-name: Tmax (h)
Dear colleague, please return just the value in h, with no unit written.

In: // query Tmax value for entry Cc1ccc(NC(=O)c2ccc3c(c2)OCCO3)cc1NC(=O)c1ccc2nc(OCCN3CCCCC3)ccc2c1
Out: 2

----------
experimental-details: Plasma stability
Assay type: in vitro ADME
condition-notes: pooled plasma; human plasma, 1 µM, 37 °C, 15 min; read-out: Compound remaining (% of 0 min)
property-name: remaining at 15 min, 1 µM (%)
Dear colleague, please return just the value in %, with no unit written.

In: // query remaining at 15 min, 1 µM value for entry Cc1ccc(NC(=O)c2ccc3c(c2)OCCO3)cc1NC(=O)c1ccc2nc(OCCN3CCCC3)ccc2c1
Out: 104

----------
experimental-details: iv PK in CF1 wild-type and P-gp-knockout mice
Type: in vivo, mouse
condition-notes: CF1 mdr1a P-gp deficient (CF1-Abcb1amds), mouse, in vivo, iv, 5 mg/kg; CF1^PGP-KO mice; read-out: Vss
property-name: Vd (L/kg)
Dear colleague, please return just the value in L/kg, with no unit written.

In: // query Vd value for entry Cc1ccc(NC(=O)c2ccc3c(c2)OCCO3)cc1NC(=O)c1ccc2nc(CN3CCN(C(C)C)CC3)ccc2c1
Out: 3.6

----------
experimental-details: Rat blood PK (Sprague-Dawley)
Assay type: in vivo
condition-notes: female, Sprague-Dawley (CD), rat, whole blood; SD rats, iv; read-out: Vss
property-name: Vd (L/kg)
Dear colleague, please return just the value in L/kg, with no unit written.

In: // query Vd value for entry Cc1ccc(NC(=O)c2ccc3c(c2)OCCO3)cc1NC(=O)c1ccc2nc(OCCN3CCCC3)ccc2c1
Out: 4.4

----------
experimental-details: Mouse blood PK (BALB/c)
condition-notes: female, BALB/c, mouse, in vivo, iv
property-name: Vd (L/kg)
Dear colleague, please return just the value in L/kg, with no unit written.

In: // query Vd value for entry Cc1ccc(NC(=O)c2ccc3c(c2)OCCO3)cc1NC(=O)c1ccc2nc(CN3CCN(C(C)C)CC3)ccc2c1
Out: 2.6

In: // query Vd value for entry CCN1CCN(Cc2ccc3cc(C(=O)Nc4cc(NC(=O)c5ccc6c(c5)OCCO6)ccc4Cl)ccc3n2)CC1
Out: 5.7

In: // query Vd value for entry CC(C)N1CCN(Cc2ccc3cc(C(=O)Nc4cc(NC(=O)c5ccc6c(c5)OCCO6)ccc4Cl)ccc3n2)CC1
Out: 4.9

----------
experimental-details: Plasma stability
Format: in vitro ADME
condition-notes: pooled plasma; mouse plasma, 120 min; read-out: Compound remaining (% of 0 min)
property-name: remaining at 120 min, 1 µM (%)
Dear colleague, please return just the value in %, with no unit written.

In: // query remaining at 120 min, 1 µM value for entry Cc1ccc(NC(=O)c2ccc3c(c2)OCCO3)cc1NC(=O)c1ccc2nc(OCCN3CCCC3)ccc2c1
Out: 85.9

----------
experimental-details: physchem
condition-notes: pH 7.4
property-name: solubility kinetic at 2 h, 100 µM (µM)
Dear colleague, please return just the value in µM, with no unit written.

In: // query solubility kinetic at 2 h, 100 µM value for entry CN1CCN(Cc2ccc3cc(C(=O)Nc4cc(NC(=O)c5ccc6c(c5)OCCO6)ccc4Cl)ccc3n2)CC1
Out: 30

In: // query solubility kinetic at 2 h, 100 µM value for entry Cc1ccc(NC(=O)c2ccc3c(c2)OCCO3)cc1NC(=O)c1ccc2nc(CN3CCCC3)ccc2c1
Out: 40

In: // query solubility kinetic at 2 h, 100 µM value for entry Cc1ccc(NC(=O)c2ccc3c(c2)OCCO3)cc1NC(=O)c1ccc2nc(CN(C)C)ccc2c1
Out: 50

In: // query solubility kinetic at 2 h, 100 µM value for entry Cc1ccc(NC(=O)c2ccc3c(c2)OCCO3)cc1NC(=O)c1ccc2nc(CN3CCCC3C)ccc2c1 (racemic)
Out: 50

In: // query solubility kinetic at 2 h, 100 µM value for entry Cc1ccc(NC(=O)c2ccc3c(c2)OCCO3)cc1NC(=O)c1ccc2nc(CN3CCN(C)CC3)ccc2c1
Out: 80

In: // query solubility kinetic at 2 h, 100 µM value for entry Cc1ccc(NC(=O)c2ccc3c(c2)OCCO3)cc1NC(=O)c1ccc2nc(CN3CCCCC3)ccc2c1
Out: 2

In: // query solubility kinetic at 2 h, 100 µM value for entry CC(C)N1CCN(Cc2ccc3cc(C(=O)Nc4cc(NC(=O)c5ccc6c(c5)OCCO6)ccc4Cl)ccc3n2)CC1
Out: 70

In: // query solubility kinetic at 2 h, 100 µM value for entry Cc1ccc(NC(=O)c2ccc3c(c2)OCCO3)cc1NC(=O)c1ccc2nc(CN3CCN(C(C)C)CC3)ccc2c1
Out: 80

In: // query solubility kinetic at 2 h, 100 µM value for entry CCN1CCN(Cc2ccc3cc(C(=O)Nc4cc(NC(=O)c5ccc6c(c5)OCCO6)ccc4Cl)ccc3n2)CC1
Out: 50

----------
experimental-details: iv PK in CF1 wild-type and P-gp-knockout mice
Format: in vivo, mouse
condition-notes: CF1 wild type, mouse, in vivo, iv, 5 mg/kg; CF1^WT mice; read-out: Vss
property-name: Vd (L/kg)
Dear colleague, please return just the value in L/kg, with no unit written.

In: // query Vd value for entry Cc1ccc(NC(=O)c2ccc3c(c2)OCCO3)cc1NC(=O)c1ccc2nc(CN3CCN(C(C)C)CC3)ccc2c1 [Compound 16]
Out: 3.2

----------
experimental-details: Mouse blood PK (BALB/c)
condition-notes: BALB/c mice; CLtb/fub
Give measured CLu for each item. Keep answers brief.
Mention the unit after the number when you answer.

In: // query CLu value for entry Cc1ccc(NC(=O)c2ccc3c(c2)OCCO3)cc1NC(=O)c1ccc2nc(OCCN3CCCCC3)ccc2c1 [Compound 17]
Out: 2700 mL/min/kg

In: // query CLu value for entry CC(C)N1CCN(Cc2ccc3cc(C(=O)Nc4cc(NC(=O)c5ccc6c(c5)OCCO6)ccc4Cl)ccc3n2)CC1 [Compound 18]
Out: 3000 mL/min/kg

In: // query CLu value for entry Cc1ccc(NC(=O)c2ccc3c(c2)OCCO3)cc1NC(=O)c1ccc2nc(CN3CCN(C(C)C)CC3)ccc2c1 [Compound 16]
Out: 1100 mL/min/kg

In: // query CLu value for entry CCN1CCN(Cc2ccc3cc(C(=O)Nc4cc(NC(=O)c5ccc6c(c5)OCCO6)ccc4Cl)ccc3n2)CC1 [Compound 21]
Out: 5300 mL/min/kg

----------
experimental-details: Rat blood PK (Sprague-Dawley)
Format: in vivo
condition-notes: female, Sprague-Dawley (CD), rat, whole blood, 5 mg/kg; SD rats, po
property-name: Cmax (nM)
Dear colleague, please return just the value in nM, with no unit written.

In: // query Cmax value for entry Cc1ccc(NC(=O)c2ccc3c(c2)OCCO3)cc1NC(=O)c1ccc2nc(OCCN3CCCC3)ccc2c1
Out: 63

----------
experimental-details: Mouse blood PK (BALB/c)
condition-notes: female, BALB/c, mouse, in vivo
property-name: bioavailability (%)
Dear colleague, please return just the value in %, with no unit written.

In: // query bioavailability value for entry CCN1CCN(Cc2ccc3cc(C(=O)Nc4cc(NC(=O)c5ccc6c(c5)OCCO6)ccc4Cl)ccc3n2)CC1
Out: 100

The reported numbers originate from paper PMC10150365.
